details: male, CD-1, mouse, in vivo, po, 50 mg/kg
# Plasma T½ listing for each entry below
Quick note: number first, unit second.

Record excerpt, results attached:
{"molecularString": "C#CCn1c(C)c(-n2nnc3ccccc32)c(=O)n(-c2cncc3ccccc23)c1=O", "measuredProperty": "Plasma T½", "result": "4.7 h"}
{"molecularString": "C#CCn1c(-c2ccc(Cl)c(Cl)c2)c(-n2nnc3cc(F)c(F)cc32)c(=O)n(-c2cncc3ccccc23)c1=O", "measuredProperty": "Plasma T½", "result": "1.87 h"}
{"molecularString": "C#CCn1c(C)c(-n2nnc3cc(F)c(F)cc32)c(=O)n(-c2cncc3ccccc23)c1=O", "measuredProperty": "Plasma T½", "result": "13 h"}

// next item, Plasma T½ requested
Find the recorded Plasma T½ belonging to O=c1[nH]c(-c2ccc(Cl)c(Cl)c2)c(-n2nnc3cc(F)c(F)cc32)c(=O)n1-c1cncc2ccccc12 and report it.
2.12 h

====

details: male, CD-1, mouse, in vivo, po, 50 mg/kg
Entries and their AUClast
Response body: numeric value in ng·h/mL, unit text excluded.

Which AUClast is reported for this molecule? C#CCn1c(C)c(-n2nnc3cc(F)c(F)cc32)c(=O)n(-c2cncc3ccccc23)c1=O
94700

Find the recorded AUClast belonging to O=c1[nH]c(-c2ccc(Cl)c(Cl)c2)c(-n2nnc3cc(F)c(F)cc32)c(=O)n1-c1cncc2ccccc12 and report it.
11500

So what does the record say about AUClast for C#CCn1c(-c2ccc(Cl)c(Cl)c2)c(-n2nnc3cc(F)c(F)cc32)c(=O)n(-c2cncc3ccccc23)c1=O ?
56500

Fill in: AUClast of C#CCn1c(C)c(-n2nnc3ccccc32)c(=O)n(-c2cncc3ccccc23)c1=O is ___
49900

====

assay: in vivo; conditions: male, CD-1, mouse, iv, 10 mg/kg, Vss
Measured Vd values are reported for all entries that follow.
// note: answer is a bare numeric in L/kg

# count of solved cases: 2
{"molecularString": "C#CCn1c(C)c(-n2nnc3ccccc32)c(=O)n(-c2cncc3ccccc23)c1=O", "Vd, L/kg": 1.39}
{"molecularString": "C#CCn1c(-c2ccc(Cl)c(Cl)c2)c(-n2nnc3cc(F)c(F)cc32)c(=O)n(-c2cncc3ccccc23)c1=O", "Vd, L/kg": 1.46}

For the next question, use this molecule.
// returns reported Vd for input C#CCn1c(C)c(-n2nnc3cc(F)c(F)cc32)c(=O)n(-c2cncc3ccccc23)c1=O
1.18

====

// Papp lookup, one value per entry
assay: in vitro; conditions: PAMPA, pH 7.4
Could you give me the number in ×10⁻⁶ cm/s? Just the number is fine.

Field: example entries. Status: answers known.
{"molecularString": "O=C1CCN(Cc2cccc(F)c2)C(=O)N1c1cncc2ccccc12", "unitText": "×10⁻⁶ cm/s", "Papp": 19.6}
{"molecularString": "O=c1[nH]c(-c2cccc(Cl)c2)c(-n2nnc3ccccc32)c(=O)n1-c1cncc2ccccc12", "unitText": "×10⁻⁶ cm/s", "Papp": 6.6}

Could you now look at the following molecule, please?
Which Papp value is on record for O=C1CCN(Cc2csc(Cl)c2)C(=O)N1c1cncc2ccccc12 ?
26.4
